These data points were gathered from the supplement of paper PMC10567573.

protein stability index overview
# assay-summary: protein stability index of a GFP-peptide fusion (GPS, HEK-293T) (PSI 1-6); higher = more stable;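 also: 24-mer peptide tiles fused after GFP, lentivirally expressed, FACS-sorted into six equal bins by GFP/DsRed ratio, decoded by Illumina sequencing, PSI is the read-weighted mean bin number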
# condition-summary: treatment: MLN4924 1 uM, 8 h; c terminus: a fixed tail appended

// worked examples, protein stability index included
>>> value_reported("EDQEEWHAQVVEELSNFKSQKVLG [ZBED1]")
5.54
>>> value_reported("TLCAVLERDTLSIRESRLFGAVVR [BTBD1]")
2.22

Moving on to another sequence below.
Q. Please report the recorded protein stability index for LAVRGSRRERELERRELAVEQGER [ZBED3] .
A. 5.07

====

# assay-summary: protein stability index of a GFP-peptide fusion (GPS, HEK-293T) (PSI 1-6); higher = more stable
# condition-summary: treatment: DMSO; c terminus: a fixed tail appended
protein stability index overview
Give the figure by itself; no unit, no explanation.

>>> value_reported("PFAYLTVLDLSKSLSAALLTAALL [POMT2]")
2.98
>>> value_reported("ERYEIDSLIGKGSFGQVVKAYDHQ [DYRK1B]")
3.92
>>> value_reported("LCYPPAKGCLKLCRRCYDWIHRPG [SPRY1]")
2.06
>>> value_reported("LFGTIAYLPPERIREKSRLFDTKH [RIPK4]")
2.57

Moving on to another sequence below.
Q. Please report the recorded protein stability index for REDITEPAICALRHLTSRHQEAEM [CTNNB1] .
A. 4.58
